test system: Plasmodium berghei; assay: Screen against P. berghei liver stage (PbLuc), transformed with Luciferase, at 2uM; type: functional, HepG2; conditions: tested at 2 uM
Screen size: about 68,000 compounds; about 2,700 (4%) showed an effect of 50% or more. This is one part of a sample in which strong results are shown more often than they occur.
Categories are defined by ranges of INHIBITION, namely bin 0 (below 10%), bin 1 (10% to below 50%), bin 2 (50% or more)

Before answering, review these 5 worked examples.
| molecule | tested.system | group |
| --- | --- | --- |
| CCOCC(=O)NCc1cc(C2CC2)n(C2CCCC2)n1 | Plasmodium berghei | bin 0 |
| CN(C)C(=O)CCC(=O)N1CCC2(CC1)COC2 | Plasmodium berghei | bin 1 |
| CCC(CC)n1nc(C)cc1NC(=O)C1CCOC1 (configuration not stated) | Plasmodium berghei | bin 0 |
| Cc1nc(CNC(=O)NCCc2ccc(N(C)C)cc2)cs1 | Plasmodium berghei | bin 1 |
| CCCC(=O)N1CCC2(CC1)COC2 | Plasmodium berghei | bin 2 |

Bin? `N#Cc1c(N2CCCN(C3CCOCC3)CC2)nc2ccccn12`
bin 1

Bin? `Cc1nc(CCNC(=O)NCc2cccc(N(C)C)n2)cs1`
bin 2

Bin? CN(C)c1cc(C2CCCN(S(=O)(=O)C3CCCC3)C2)ccn1 (configuration not stated)
bin 1

Bin? CN(C)C1COC2(CCN(S(=O)(=O)c3ccc(F)cc3)CC2)C1 (configuration not stated)
bin 1

Bin? CCS(=O)(=O)N1CCCC(c2ccnc(N(C)C)c2)C1 (configuration not stated)
bin 2

Bin? `Cc1cc(CN2CCc3nc(-c4ccncc4)nc(O)c3CC2)c(C)s1`
bin 1

====

system: Plasmodium berghei; test: Screen against P. berghei liver stage (PbLuc), transformed with Luciferase, at 2uM; assay type: functional, HepG2; conditions: tested at 2 uM
Screen size: about 68,000 compounds; about 2,700 (4%) showed an effect of 50% or more. This excerpt belongs to a sample that is enriched for strong results.
assay.endpoint: INHIBITION (%)
Write the value in % as a bare number.

Known results for compounds:
| compound | INHIBITION / % |
| --- | --- |
| CN(C)CCNC(=O)c1ccccc1NC(=O)c1cc(Cl)ccc1Cl | 13.39 |
| Cc1nc(CCCNC(=O)C2CC(=O)N(C(C)(C)C)C2)sc1C (configuration not stated) | 13.87 |
| O=C(c1cscn1)N1CC[C@@H]2[C@@H]1CCN2c1ccccn1 | 36.03 |
| Cc1ccc(S(=O)(=O)NC(=O)C2(c3ccc(F)cc3)CCC2)c(C)c1 | -2.2 |
| CCc1nnsc1C(=O)NCc1c(C)nn(CCOC)c1C | 24.05 |

Which INHIBITION is reported for this compound? `CC(C)(C)c1cnc(CN2CCC[C@H]2CO)o1`
56.72

Which INHIBITION is reported for this compound? CSC1(CNC(=O)NC(C)c2ccc(F)c(F)c2)CCOCC1 (configuration not stated)
-90.61

Which INHIBITION is reported for this compound? Cc1nc(CCNC(=O)NC(C)Cn2cccn2)cs1 (configuration not stated)
38.76

Which INHIBITION is reported for this compound? `CCc1ncc2c(n1)CN(c1nnc(C)c(C)c1C#N)CC2`
23.43

Which INHIBITION is reported for this compound? COCCNc1ccccc1CNC(=O)C1CCCOC1 (configuration not stated)
-4.26

Which INHIBITION is reported for this compound? CC(C)(C)c1cnc(CN2CCCCC2Cn2cccn2)o1 (configuration not stated)
-23.94

Which INHIBITION is reported for this compound? CSC1(CNC(=O)NC(C)c2ccc(F)cc2)CCOCC1 (configuration not stated)
51.43

====

In this section we review reported INHIBITION values for a set of compounds.
system: Plasmodium berghei; assay: Screen against P. berghei liver stage (PbLuc), transformed with Luciferase, at 2uM; assay type: functional, HepG2; conditions: tested at 2 uM
Out of some 68,000 compounds screened, about 2,700 (4%) showed an effect of 50% or more. Many of the other results were omitted from the sample, so strong results are more common in it than they were.
Write the value in % as a bare number.

Known results for compounds:
| compound | tested.system | INHIBITION, % |
| --- | --- | --- |
| Cc1cn(CC(=O)NC2CCC(C(=O)O)CC2)c2ccccc12 (stereo unspecified) | Plasmodium berghei | 0.13 |
| CC1=Nc2c(c(=O)[nH]n2C(C)C)C(c2ccc3c(c2)OCCO3)S1 (stereo unspecified) | Plasmodium berghei | -19.21 |
| CC1=Nc2c(c(=O)[nH]n2C(C)C)C(c2ccccc2)S1 (stereo unspecified) | Plasmodium berghei | 18.37 |
| O=C(CN1C(=O)CCC1=O)N1CCC(S(=O)(=O)Cc2ccco2)CC1 | Plasmodium berghei | 53.81 |

So what INHIBITION did `O=C(CN1C(=O)CCC1=O)N1CCC(CSCc2ccco2)CC1` get with Plasmodium berghei?
44.23

So what INHIBITION did Cc1cc(C)cc(-c2cc(C3CCOC3)c(C#N)c(N)n2)c1 (stereo unspecified) get with Plasmodium berghei?
59.27

====

tested on: Plasmodium berghei; test: Screen against P. berghei liver stage (PbLuc), transformed with Luciferase, at 2uM; format: functional, HepG2; conditions: tested at 2 uM
Hit rate of the full screen: of about 68,000 compounds, about 2,700 (4%) showed an effect of 50% or more. What follows is part of a selection rich in strong results, with near analogues and random picks from the rest.
assay.endpoint: INHIBITION

Known results for compounds:
| compound | INHIBITION |
| --- | --- |
| COc1cccc(CN2CCCC3(CCN(C(=O)N4CCCC4)C3)C2)c1 (stereo unspecified) | 50.17% |
| OC(COCc1ccco1)CN1CCc2c(ncn2C2CC2)C1 (stereo unspecified) | 35.23% |

Which INHIBITION is reported for this compound? COCCn1cc(C(=O)N2CCCC2c2cccc(C)c2)ccc1=O (stereo unspecified)
9.5%

Which INHIBITION is reported for this compound? `CNC(=O)CC1CCN(C(=O)NCc2coc3ccccc23)CC1`
53.81%

Which INHIBITION is reported for this compound? `CCN(CC)c1ncc(Cl)c(C(=O)NC2CC2)n1`
26.8%

Which INHIBITION is reported for this compound? COc1cccc(CN2CCCC3(CCN(C(=O)c4ccco4)C3)C2)c1 (stereo unspecified)
8.37%

Which INHIBITION is reported for this compound? `CCc1nnc2n1CCN(C(=O)c1ccc3[nH]cnc3c1)C2`
-17.45%

Which INHIBITION is reported for this compound? CCOCC1CN(CC2CC2)Cc2nn(C)cc21 (stereo unspecified)
4.99%

Which INHIBITION is reported for this compound? CC(C)c1noc(-c2ccc(NC(=O)NCC(O)C(C)C)cc2)n1 (stereo unspecified)
-10.44%

Which INHIBITION is reported for this compound? CCc1ccc(C(COC)NC(=O)c2ccc(C(N)=O)cc2)o1 (stereo unspecified)
15.56%

Which INHIBITION is reported for this compound? COC(=O)C(NC(=O)COC1CCCCC1)c1ccccc1 (stereo unspecified)
54.52%

Which INHIBITION is reported for this compound? CCOc1ccccc1CCNC(=O)NCC(O)c1ccsc1 (stereo unspecified)
53.63%

====

test system: Plasmodium berghei; assay: Screen against P. berghei liver stage (PbLuc), transformed with Luciferase, at 2uM; assay type: functional, HepG2; conditions: tested at 2 uM
About 2,700 (4%) of roughly 68,000 compounds showed an effect of 50% or more. This excerpt belongs to a sample that is enriched for strong results.
assay.endpoint: INHIBITION

| molecule | INHIBITION |
| --- | --- |
| COCCN(Cc1ccc(C)o1)C(=O)Nc1nnc(C(F)F)s1 | -44.8% |
| Cc1ccc(F)c(NS(=O)(=O)c2cc3c(c(C(=O)O)c2)OCCO3)c1 | -45.83% |
| CCc1c(C(=O)NCC(=O)OCC2CC2)cnn1-c1ccc(C)cc1 | -14.3% |
| Cc1ncc(CNC(=O)CCc2cccc(F)c2)c(C2CCCN2C)n1 (stereo unspecified) | 7.21% |

Which INHIBITION is reported for this molecule? `CN(c1ccc(F)cc1)S(=O)(=O)c1cc2c(c(C(=O)O)c1)OCCO2`
26.75%

Which INHIBITION is reported for this molecule? `Cc1cccc(COC[C@H]2CC[C@H]3[C@H](CCN3C(=O)CC3CC3)O2)n1`
9.79%

Which INHIBITION is reported for this molecule? `Cc1cc(C)cc(N(C)S(=O)(=O)c2cc3c(c(C(=O)O)c2)OCCO3)c1`
34.46%

====

tested on: Plasmodium berghei; test: Screen against P. berghei liver stage (PbLuc), transformed with Luciferase, at 2uM; assay type: functional, HepG2; conditions: tested at 2 uM
The whole screen tested about 68,000 compounds, of which about 2,700 (4%) showed an effect of 50% or more. This excerpt belongs to a sample that is enriched for strong results.
assay.endpoint: INHIBITION (%)
Write the value in % as a bare number.

Known results for molecules:
| molecule | tested.system | INHIBITION / % |
| --- | --- | --- |
| COc1ncc(NCc2ccc(F)cc2)cc1C(N)=O | Plasmodium berghei | 17.18 |
| CCc1cc(N2CCC(n3cc(C(=O)NCC(C)C)nn3)CC2)ncn1 | Plasmodium berghei | -71.68 |

Which INHIBITION is reported for this molecule? COc1ccc(CN2CC(O)CN(C(=O)c3ccccc3)CC2=O)cc1 (centres undefined)
-21.31

Which INHIBITION is reported for this molecule? `CC(C)Nc1cc(N2CCC(n3cc(C4CC4)nn3)CC2)ncn1`
-46.8

Which INHIBITION is reported for this molecule? `COc1cc(C(=O)NS(=O)(=O)c2cccc(C#N)c2)cc(OC)c1Br`
41.76

Which INHIBITION is reported for this molecule? `CN(CC(=O)Nc1ccc(Br)cn1)C(=O)C(C)(C)C`
8.42

Which INHIBITION is reported for this molecule? O=C(C1CCCc2[nH]ncc21)N1CCCC1 (centres undefined)
-10.01

Which INHIBITION is reported for this molecule? CCc1ccc(C2NCCc3cc4c(cc32)OCCO4)cc1 (centres undefined)
-5.98

Which INHIBITION is reported for this molecule? O=C(NCCCn1nc2ccccn2c1=O)NC1CCC(O)CC1 (centres undefined)
8.3

Which INHIBITION is reported for this molecule? `CC(C)Nc1cc(N2CCC(n3cc(CCO)nn3)CC2)ncn1`
69.71

Which INHIBITION is reported for this molecule? `CO[C@@H]1CCN(S(=O)(=O)c2cn(C)cn2)[C@H]1Cc1ccccc1`
4.38

Which INHIBITION is reported for this molecule? `COc1ccc(C(=O)NS(=O)(=O)c2cncc(Br)c2)cc1OC`
-10.6

Which INHIBITION is reported for this molecule? `Clc1cnccc1N1CCC(OC2CCOCC2)CC1`
-76.37

Which INHIBITION is reported for this molecule? `CCCN(C)S(=O)(=O)NC(=O)c1ccc(CC)o1`
13.28

Which INHIBITION is reported for this molecule? `CCOc1cccc2c1OCC(C(=O)NS(=O)(=O)c1ccc(Cl)cc1)=C2`
30.91

Which INHIBITION is reported for this molecule? `Clc1cncc(NCc2cccc(COC3CCOCC3)c2)n1`
-0.39

Which INHIBITION is reported for this molecule? `COc1ccc(C(=O)NS(=O)(=O)c2cncc(Br)c2)cc1`
53.12

Which INHIBITION is reported for this molecule? `CNS(=O)(=O)Cc1cccc(CNc2ccc(C#N)cn2)c1`
19.12

Which INHIBITION is reported for this molecule? `CCOc1cccc2c1OCC(C(=O)NS(=O)(=O)c1ccc(Br)s1)=C2`
-20.93

Which INHIBITION is reported for this molecule? `CCCS(=O)(=O)NC(=O)c1ccc(CC)o1`
10.48

Which INHIBITION is reported for this molecule? `COc1cc(C(=O)NS(=O)(=O)c2cccc(C#N)c2)ccc1C`
23.92

Which INHIBITION is reported for this molecule? `CCn1cc(CNC(=O)c2nn(CC)cc2Br)cn1`
-26.13

Which INHIBITION is reported for this molecule? `CC(C)Nc1cc(N2CCC(n3cc(C4CCCC4)nn3)CC2)ncn1`
-1.21

Which INHIBITION is reported for this molecule? N#Cc1ccc(NCc2cccc(OCC3CCCO3)c2)nc1 (centres undefined)
42.35
